- experimental.system: benzodiazepine site of the GABA-A receptor
- test.method.notes: Benzodiazepine Receptor Binding Assay (inhibition of 3H-flunitrazepam binding)
- cond: read-out: GABAA Receptor Binding IC50
pIC50: −log10 of the molar value.
property.name: pIC50

CN(C)CCCN1C2=C(C(=O)Nc3c(F)cccc3F)C(=O)CCN2c2ccc(F)cc21 | 7.08

A: CCOCCN1C2=C(C(=O)Nc3ccnc(F)c3)C(=O)CCN2c2ccc(F)cc21
B: O=C1CCN2C(=C1C(=O)Nc1cccnc1)N(CCOCc1ccccc1)c1cc(F)ccc12
C: CCOCCN1C2=C(C(=O)Nc3cccs3)C(=O)CCN2c2ccc(F)cc21
D: COCN1C2=C(C(=O)Nc3ccccc3F)C(=O)CCN2c2ccc(F)cc21
Query: Parameters: sort_field (pIC50), sort_dir (desc). To answer, write out the labels according to the requested order.
Response: D, C, A, B

a: CCOCCN1C2=C(C(=O)Nc3ccc(F)cc3F)C(=O)CCN2c2ccc(F)cc21
b: CCOCN1C2=C(C(=O)Nc3c(F)cccc3F)C(=O)CCN2c2c1ccc(F)c2F
Query: In terms of reported pIC50, does a or b have the smaller number? Answer format: the label of the selected item.
Response: b

----------
- Tested on: Anxiety in the Adult Male Rat
- test.method.notes: Suppression of Anxiety in the Adult Male Rat (rat conflict test)
- Type: in vivo, rats
- cond: Rattus norvegicus, po, rat, po; read-out: Rat Conflict (MED, mg/kg) po
property.name: minimal effective dose

Known results for compounds:
COC(=O)OCCN1C2=C(C(=O)Nc3ccccc3F)C(=O)CCN2c2ccc(F)cc21 | 3 mg/kg
CCOC(CCN1C2=C(C(=O)Nc3ccccc3F)C(=O)CCN2c2ccc(F)cc21)OCC | 3 mg/kg

Query: Which minimal effective dose reading was recorded for the compound COCCN1C2=C(C(=O)Nc3ccccc3F)C(=O)CCN2c2ccc(C(F)(F)F)cc21 ?
Response: > 10 mg/kg

Query: Which minimal effective dose reading was recorded for the compound COCCN1C2=C(C(=O)Nc3nccs3)C(=O)CCN2c2ccccc21 ?
Response: 10 mg/kg

Query: Which minimal effective dose reading was recorded for the compound N#CCN1C2=C(C(=O)NC3CCCCC3)C(=O)CCN2c2ccc(F)cc21 ?
Response: > 10 mg/kg

Query: Which minimal effective dose reading was recorded for the compound O=C1CCN2C(=C1C(=O)Nc1ccccc1F)N(CCO)c1cc(F)ccc12 ?
Response: > 10 mg/kg

Query: Which minimal effective dose reading was recorded for the compound O=C1CCN2C(=C1C(=O)Nc1ccccc1F)N(COCc1ccccc1)c1cc(F)ccc12 ?
Response: > 10 mg/kg

----------
- experimental.system: benzodiazepine site of the GABA-A receptor
- test.method.notes: Benzodiazepine Receptor Binding Assay (inhibition of 3H-flunitrazepam binding)
- cond: read-out: GABAA Receptor Binding IC50
property.name: IC50 (nM)

CCOCN1C2=C(C(=O)Nc3ccc(OCc4ccccc4)cc3F)C(=O)CCN2c2ccc(F)cc21 [Compound 92] | 3.33
CCN(CC)CCN1C2=C(C(=O)Nc3ccccc3F)C(=O)CCN2c2ccc(F)cc21 [Compound 71] | 74.5
CCOCN1C2=C(C(=O)Nc3ccc(O)cc3F)C(=O)CCN2c2ccc(F)cc21 [Compound 99] | 1.38
COCCN1C2=C(C(=O)Nc3ccccc3F)C(=O)CCN2c2ccc(Cl)cc21 [Compound 147] | 2.49

P: O=C1CCN2C(=C1C(=O)Nc1ccccc1F)N(CCNS(=O)(=O)c1cccs1)c1cc(F)ccc12 [Compound 47]
Q: CC(C)(C)OC(=O)N1CCN(CCN2C3=C(C(=O)Nc4ccccc4F)C(=O)CCN3c3ccc(F)cc32)CC1 [Compound 80]
Query: In terms of reported IC50, does P or Q have the smaller number? Answer format: the label of the selected item.
Response: Q
(Q: 3.7 nM, P: 13.7 nM)

A: CN(C)CCN1C2=C(C(=O)Nc3ccccc3F)C(=O)CCN2c2ccc(F)cc21 [Compound 74]
B: COCCN1C2=C(C(=O)Nc3ccc(F)cc3F)C(=O)CCN2c2ccc(F)cc21 [Compound 136]
Query: In terms of reported IC50, does A or B have the smaller number? Answer format: the label of the selected item.
Response: B
